# tested-on: NACHT, LRR and PYD domains-containing protein 3 (Homo sapiens, UniProt Q96P20)
# Sequence (Q96P20 whole entry, the tested form may be a part): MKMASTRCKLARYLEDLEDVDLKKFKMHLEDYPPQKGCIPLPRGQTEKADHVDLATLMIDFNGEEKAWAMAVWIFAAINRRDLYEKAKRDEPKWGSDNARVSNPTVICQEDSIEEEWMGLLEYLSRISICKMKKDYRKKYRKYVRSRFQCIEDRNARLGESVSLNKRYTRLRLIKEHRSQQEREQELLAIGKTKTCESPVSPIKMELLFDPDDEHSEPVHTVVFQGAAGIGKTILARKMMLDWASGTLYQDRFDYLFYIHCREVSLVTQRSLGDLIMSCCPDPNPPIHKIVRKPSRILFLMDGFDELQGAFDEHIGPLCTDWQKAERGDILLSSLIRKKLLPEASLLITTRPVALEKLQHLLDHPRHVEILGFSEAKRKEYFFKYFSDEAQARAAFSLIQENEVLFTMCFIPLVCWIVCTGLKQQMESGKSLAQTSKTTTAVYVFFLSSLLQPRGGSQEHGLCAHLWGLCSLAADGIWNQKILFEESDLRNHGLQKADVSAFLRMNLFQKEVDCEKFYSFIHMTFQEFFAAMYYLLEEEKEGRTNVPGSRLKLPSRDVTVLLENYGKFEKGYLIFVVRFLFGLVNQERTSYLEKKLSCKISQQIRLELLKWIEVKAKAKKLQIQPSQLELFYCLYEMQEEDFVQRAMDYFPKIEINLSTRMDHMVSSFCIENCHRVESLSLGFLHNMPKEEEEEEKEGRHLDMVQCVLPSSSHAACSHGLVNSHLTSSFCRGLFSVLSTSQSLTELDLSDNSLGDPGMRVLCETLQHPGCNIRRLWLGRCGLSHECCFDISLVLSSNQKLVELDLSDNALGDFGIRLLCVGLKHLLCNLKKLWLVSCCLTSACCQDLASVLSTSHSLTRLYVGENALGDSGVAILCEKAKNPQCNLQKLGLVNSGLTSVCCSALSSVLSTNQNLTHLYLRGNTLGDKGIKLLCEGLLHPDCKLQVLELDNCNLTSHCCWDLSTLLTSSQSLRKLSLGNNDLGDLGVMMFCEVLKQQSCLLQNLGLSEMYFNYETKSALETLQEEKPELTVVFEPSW
This listing pairs compounds with measured IC50.
Write the number in nM without appending the unit.

Record excerpt, results attached:
compound	IC50 (nM)
COCC1COCCN(S(=O)(=O)NC(=O)c2coc(Nc3cc(C(F)(F)F)ccc3C)n2)C1 (centres undefined)	64
CCOCC1CCN(S(=O)(=O)NC(=O)c2coc(Nc3cc(OC)c(F)cc3C)n2)CCO1 (centres undefined)	26
Cc1ccc(C(F)(F)F)cc1Nc1nc(C(=O)NS(=O)(=O)N(C)Cc2cccnc2)co1	79

The record that follows has no IC50 shown yet.
input: # query: IC50 | item Cc1ccc(C(F)(F)F)cc1Nc1nc(C(=O)NS(=O)(=O)N(C)CCn2cccn2)co1 | system: NACHT, LRR and PYD domains-containing protein 3 (Homo sapiens, UniProt Q96P20)
output: 74
